# experiment-description: qHTS Assay for Rab9 Promoter Activators; note: nearly all actives have a fitted effect of over 60% in size
# condition-label: Huh7 Rab9 promoter-luciferase reporter, luminescence, 24 h; series mostly up to 9.22 µM
About 9,100 (2.8%) of roughly 320,000 compounds were called active. Inconclusive results (about 3%) are left out. Calls come from the whole dose curve; as a rule, active = well fitted activation curve with a large enough effect; inconclusive = small, poorly fitted or top-dose-only effect; inactive = no such curve, though single readings can be large or run the other way. Only a selection was taken, and actives are over-represented in it overall.
Classes used: active, inactive

• COc1ccc(N(CCC(=O)NCCc2ccccc2)S(=O)(=O)c2ccc(C)cc2C)cc1 = inactive
• Cc1ccc(C(=O)N/C(=C/c2cccs2)C(=O)NCC2CCCO2)cc1 (stereo not given) = inactive
• Cc1ccc(-n2c(C)cc(/C=C(\C#N)C(=O)NCC3CCCO3)c2C)cc1 (stereo not given) = active
• O=[N+]([O-])c1ccc2nc(-c3ccccn3)[nH]c2c1 = active
• Cc1ccc(S(=O)(=O)CCC(=O)OCC(=O)NCCc2ccc(S(N)(=O)=O)cc2)cc1 = inactive
• Cc1c(NC(=O)c2cc(-c3ccc(Br)cc3)on2)c(=O)n(-c2ccccc2)n1C = inactive
• Cc1ccc(S(=O)(=O)N2CCC(C(=O)NCC3CCCO3)CC2)cc1 (stereo not given) = inactive
• Cc1cc(NC(=O)CCC(=O)N(CC(=O)NCC2CCCO2)c2ccccc2)no1 (stereo not given) = inactive
• O=C(CSc1nc2ccc([N+](=O)[O-])cc2[nH]1)c1ccc(Cl)cc1 = inactive
• O=C(Nc1nnc(CCN2CCCCC2)s1)c1cccc(Cl)c1 = inactive

----------
# experiment-description: qHTS Assay for Rab9 Promoter Activators; note: nearly all actives have a fitted effect of over 60% in size
# condition-label: Huh7 Rab9 promoter-luciferase reporter, luminescence, 24 h; series mostly up to 9.22 µM
Hit rate of the full screen: of about 320,000 compounds, about 9,100 (2.8%) were called active. Roughly 3% stayed inconclusive and do not appear here. The call rests on the fitted dose curve; in most records, active means well fitted activation curve with a large enough effect; inconclusive means small, poorly fitted or top-dose-only effect; inactive means no such curve, though single readings can be large or run the other way. For the sample, actives were picked, then their nearest neighbours and some compounds at random.
Classes used: active, inactive

- CCCc1nnc(NC(=O)c2cc(OC)cc(OC)c2)s1: inactive
- CC(NC(=O)Nc1ccc2c(c1)OCO2)c1ccncc1 (stereo not given): inactive
- COc1ccc(-n2nnnc2-c2nc3ccccc3s2)cc1: active
- COc1ccc(CNC(=O)COC(=O)CCS(=O)(=O)c2ccc(C)cc2)cc1OC: inactive
- O=C(/C=C\c1ccc2c(c1)OCO2)NC1(C(=O)Nc2ccc3c(c2)OCCO3)CCCCC1: inactive
- O=C(CCNC(=O)c1ccc([N+](=O)[O-])cc1)NC1CCCCC1: inactive
- COCc1nnc(NC(=O)c2ccc3c(c2)OCO3)s1: active
- COn1c(-c2ccc(Cl)cc2Cl)nc2ncccc21: inactive
- CCOc1cccc(-n2nnnc2-c2ccc(OC)cc2)c1: inactive
- CC(C)CNS(=O)(=O)c1ccc(C(=O)Nc2ccc3c(c2)OCO3)cc1: inactive
- Cc1ccccc1CC1(CO)CCCN(C(=O)c2cc(-c3ccccc3)no2)C1 (stereo not given): inactive
- O=C(NCc1ccncc1)c1cccc(NS(=O)(=O)c2ccc(F)c(F)c2)c1: inactive
- O=C(CN1CCc2cc3c(cc2C1)OCCCO3)Nc1ccccc1: inactive
- COc1ccc(C2=NN(C(=O)CSc3nnnn3C)C(c3ccco3)C2)cc1 (stereo not given): inactive
- NC(=O)c1ccsc1NC(=O)c1ccco1: inactive
- COc1cccc(/C=C/C(=O)Nc2ccc3c(c2)OCCO3)c1: active
- CCN1CCC(=NNC(=O)c2ccc(C)c([N+](=O)[O-])c2)CC1: inactive
- O=C(Nc1ccnc(-c2ccncc2)n1)c1cccs1: inactive
- CC(C)Oc1ccc(C(=O)NCC(=O)Nc2ccc3c(c2)CCC3)cc1: inactive
- O=C(Nc1ccc(C2CC2(Cl)Cl)cc1)c1cccc([N+](=O)[O-])c1 (stereo not given): active
- Cc1nc(C)c(C(=O)Nc2ccc(C)c(F)c2)o1: inactive
- Cc1cc(O)c(NC(=O)c2ccc(C)c([N+](=O)[O-])c2)cc1C: active
- Cc1noc(C)c1CCC(=O)N1CCCC(CO)(Cc2ccccc2)C1 (stereo not given): active
- Cc1ccc(F)c(NC(=O)CCc2ccccc2)c1: active
- Cn1c(NC(=O)c2ccc3c(c2)OCO3)cc(=O)n(C)c1=O: inactive
- COc1ccc2[nH]c(C(=O)Nc3ccccc3Cl)cc2c1: inactive
- O=C(Nc1cccc(S(=O)(=O)N2CCCCC2)c1)c1ccc2c(c1)OCO2: inactive
- O=C(Nc1ccc(Br)cn1)C1CCN(S(=O)(=O)c2cccs2)CC1: inactive
- Cc1ccc(F)c(NC(=O)CCOc2ccccc2C)c1: inactive
- CCOc1ccc(NC(=O)CN(C)C(=O)Cc2sc(C)nc2-c2ccc(F)cc2)cc1OCC: inactive
- O=C(OCc1ccc(Br)cc1)c1cccc(-c2nnc(-c3ccccc3)o2)c1: active
- O=C(COC(=O)CCCN1C(=O)c2cccc3cccc(c23)C1=O)NC1CCS(=O)(=O)C1 (stereo not given): inactive
- CN1CCN(c2ccc(NC(=O)c3cc(Cl)c4c(c3)OCCO4)cc2)CC1: inactive
- COC(=O)c1cc2c(ccn2C)n1C: inactive
- O=S(=O)(NCc1ccc2c(c1)OCO2)c1cccc2nsnc12: inactive
- Clc1ccc(-c2cc(-c3ccccn3)on2)c(Cl)c1: active
- COCCn1c(C)cc(C2=NNC(=Nc3ccc(F)cc3)SC2)c1C: active
- O=C(OCc1nnc(-c2ccccc2)o1)c1ccc2c(c1)C(=O)N(CCc1ccccc1)C2=O: inactive
- COc1ccc(OC)c(/C=C/C(=O)OCC(=O)Nc2ccc3c(c2)OCCO3)c1: inactive
- CNS(=O)(=O)c1ccc(NC(=O)Nc2ccc3c(c2)OCO3)cc1: active
- COC(=O)c1ccc(N2CCOCC2)c(NC(=O)c2ccc3c(c2)OCCO3)c1: inactive
- CCC(=O)c1ccc(OCC(=O)N(CC)CC2COc3ccccc3O2)cc1 (stereo not given): inactive
- O=C(Nc1ccc(NC(=O)c2cccs2)cn1)c1ccco1: active
- Cc1cccc(NC(=O)Nc2ccc3c(c2)OCO3)n1: active
- CCOc1ncccc1C(=O)OCC(=O)Nc1cccc(S(=O)(=O)N2CCCCCC2)c1: inactive
